target: Thrombin (Homo sapiens, UniProt P00734); construct: purchased Haematologic Technologies (Essex Junction, VT); test: Chromogenic assay, thrombin; assay type: biochemical; settings: Thrombin 0.5 nM; S-2288 500 μM; highest conc. of 1.001 100 μM
Assay Readout: IC50

What IC50 value was documented for this molecule, `CS(=O)(=O)c1cc(CO)ccc1-c1nc2cc3c(cc2c(=O)o1)OCCO3` ?
> 10 µM

====

target: KLK14 (Homo sapiens, UniProt Q9P0G3); construct: purchased R&D Biosystems (Minneapolis, MN) / R&Dsystems; host or cells: mouse myeloma cells; test: Chromogenic assay, KLK14; format: biochemical; details: KLK14 1 nM; S-2288 500 μM; highest conc. of 1.001 50 μM
Sequence (Q9P0G3 41-267): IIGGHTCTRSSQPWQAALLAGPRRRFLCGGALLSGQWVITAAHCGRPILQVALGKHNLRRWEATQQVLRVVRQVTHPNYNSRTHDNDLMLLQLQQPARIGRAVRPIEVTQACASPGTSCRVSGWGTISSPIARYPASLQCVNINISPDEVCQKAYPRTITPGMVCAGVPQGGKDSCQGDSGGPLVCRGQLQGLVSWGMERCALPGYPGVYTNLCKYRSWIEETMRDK
Assay Readout: IC50 (µM)
# output: bare number, implied unit µM

What IC50 value was documented for this compound, CS(=O)(=O)c1cc(CO)ccc1-c1nc2cc3c(cc2c(=O)o1)OCCO3 [Compound 1.001] ?
0.442

====

Biological target: Neutrophil Elastase (Homo sapiens)
Sequence (P08246 30-267): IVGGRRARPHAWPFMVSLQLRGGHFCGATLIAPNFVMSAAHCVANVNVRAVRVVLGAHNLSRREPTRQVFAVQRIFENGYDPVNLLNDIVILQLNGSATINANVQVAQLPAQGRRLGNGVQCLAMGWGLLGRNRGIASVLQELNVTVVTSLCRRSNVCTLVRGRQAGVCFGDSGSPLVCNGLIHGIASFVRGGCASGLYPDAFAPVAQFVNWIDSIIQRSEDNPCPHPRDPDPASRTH
Test: Chromogenic assay, neutrophil elastase
Format: biochemical
Conditions: Neutrophil Elastase 0.5 nM; Elastase substrate 1 200 μM; highest conc. of 1.001 100 μM
Procedure: Human Kallikrein Proteins: Recombinant human KLK5 expressed in HEK293 was obtained from SpeedBio (Gaithersburg, MD). […] Assays: All assays were performed in 384 well polystyrene plates coated overnight with 0.1% Tween 20 at 4° C. […] The assays were monitored at 37° C. in a multi well plate reader at a wavelength of 405 nm (Molecular Devices, San Jose, CA) for 1 h. […] Data analysis: The progress curves of substrate hydrolysis were analyzed by linear regression of the final 20 min of the reaction. […]
Assay Readout: IC50

CS(=O)(=O)c1cc(CO)ccc1C(=O)Nc1cc2c(cc1C(=O)O)OCCO2 [Compound 408, reference compound]    > 500 µM

Consider now this further molecule.
What IC50 value was documented for this molecule, `CS(=O)(=O)c1cc(CO)ccc1-c1nc2cc3c(cc2c(=O)o1)OCCO3` ?
> 50 µM

====

Molecular target: Recombinant human KLK5 (Homo sapiens, UniProt Q9Y337)
Construct: purchased SpeedBio (Gaithersburg, MD) / SpeedBioSystems; host or cells: HEK293
Sequence (Q9Y337 23-293): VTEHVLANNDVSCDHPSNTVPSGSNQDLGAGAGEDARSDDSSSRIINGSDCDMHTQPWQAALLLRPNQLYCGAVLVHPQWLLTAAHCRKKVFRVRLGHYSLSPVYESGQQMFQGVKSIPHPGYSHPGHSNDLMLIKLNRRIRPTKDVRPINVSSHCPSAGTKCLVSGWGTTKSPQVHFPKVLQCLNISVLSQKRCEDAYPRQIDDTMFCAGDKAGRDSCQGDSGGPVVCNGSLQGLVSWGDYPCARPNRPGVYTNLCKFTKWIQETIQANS
Assay: Recombinant KLK5 chromogenic IC50 assay
Assay type: biochemical
Conditions: Table 2; assay protocol of Example 3; read-out: Recombinant KLK5 enzyme (IC50)
The following compounds are listed with their measured pIC50 values.
Remember the convention: pIC50 equals -log10 of concentration in molar.

What pIC50 value was documented for this compound, `CS(=O)(=O)c1ccc(CO)cc1-c1nc2cc3c(cc2c(=O)o1)OCCO3` ?
5.80

Same read-out for CS(=O)(=O)c1ccccc1-c1nc2cc3c(cc2c(=O)o1)OCCO3 [Compound 14, reference compound] ?
6.62

Same read-out for `CS(=O)(=O)c1cc(CO)ccc1-c1nc2cc3c(cc2c(=O)o1)OCCO3` ?
6.68
